# pEC50 values compiled below
- Tested on: TC-71 (Ewing's sarcoma) cells
- protocol text: Cell proliferation assay, TC-71 (Alamar Blue)
- Type: cell-based
- condition notes: 72 h with compound, EC50 ranges as class symbols
pEC50: −log10 of the molar value.

### Prompt Respond only with pEC50 recorded for COCCN1CCCC(c2ccc(Nc3ncc(Br)c(NCc4cccc5c4C(C)(C)C(=O)N5)n3)cc2)C1 (racemic)
### Response 6.60 to 7.30

### Prompt Respond only with pEC50 recorded for COCCN1CCCC(c2ccc(Nc3ncc(Br)c(NCc4cccc5c4C(C)(C)C(=O)N5)n3)c(OC)c2)C1 (racemic)
### Response > 7.30

### Prompt Respond only with pEC50 recorded for `COc1cc(C2CCN(CC(C)(C)O)CC2)ccc1Nc1ncc(Br)c(NCc2cccc3c2C(C)(C)C(=O)N3)n1`
### Response > 7.30

### Prompt Respond only with pEC50 recorded for CC1(C)C(=O)Nc2cccc(CNc3nc(Nc4ccc(C5CCN(C(=O)C6CCCC(=O)N6)CC5)cc4)ncc3Br)c21 (stereo not drawn)
### Response 6.60 to 7.30

### Prompt Respond only with pEC50 recorded for `COc1cc(N2CCN(C)CC2)ccc1Nc1ncc(C(F)(F)F)c(NCc2cccc3c2C(C)(C)C(=O)N3)n1`
### Response > 7.30

### Prompt Respond only with pEC50 recorded for `Cc1cc(C2CCN(C(=O)CO)CC2)ccc1Nc1ncc(Cl)c(NCc2cccc3c2C(C)(C)C(=O)N3)n1`
### Response 6.60 to 7.30

### Prompt Respond only with pEC50 recorded for Cc1cc(C2CCN(CC(O)C(F)(F)F)CC2)ccc1Nc1ncc(Cl)c(NCc2cccc3c2C(C)(C)C(=O)N3)n1 (stereo not drawn)
### Response 6.60 to 7.30

### Prompt Respond only with pEC50 recorded for `COCCN1CCC(c2ccc(Nc3ncc(Cl)c(NCc4cccc5c4C(C)(C)C(=O)N5)n3)cc2C)CC1`
### Response > 7.30

### Prompt Respond only with pEC50 recorded for `CC(C)(O)CN1CCC(c2ccc(Nc3ncc(Cl)c(NCc4cccc5c4C(C)(C)C(=O)N5)n3)cc2)CC1`
### Response 6.60 to 7.30

### Prompt Respond only with pEC50 recorded for `Cc1cc(C2CCN(C)CC2)ccc1Nc1ncc(Br)c(NCc2cccc3c2C(C)(C)C(=O)N3)n1`
### Response > 7.30

### Prompt Respond only with pEC50 recorded for CC1(C)C(=O)Nc2cccc(CNc3nc(Nc4ccc(C5CCN(C(=O)C6CCN6)CC5)cc4)ncc3Br)c21 (stereo not drawn)
### Response 5.52 to 6.60
